TARGET_ENTITY: lysozyme from egg, P00698
Sequence (P00698 19-147): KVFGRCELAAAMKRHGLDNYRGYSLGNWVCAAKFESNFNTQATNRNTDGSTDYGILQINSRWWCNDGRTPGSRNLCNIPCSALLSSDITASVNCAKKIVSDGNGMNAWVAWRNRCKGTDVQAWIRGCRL
PROCEDURE_TEXT: SPR
DETAILS: chain shown with the change; lysozyme immobilized, VNAR flowed over; 1:1 fitting model
VALUE_KIND: ratio to parent

BINDER: anti-lysozyme VNAR (lyso-VNAR) C30P; C112.1T (protein) ARVDQTPQTITKETGESLTINCVLRDSNPALSSTYWYRKKSGSTNEESISKGGRYVETVNSGSKSFSLRINDLTVEDSGTYRCKPESRYGSYDAETAALNDQYGGGTVVTVN
RECORDED_VALUE: 211
//
BINDER: anti-lysozyme VNAR (lyso-VNAR) C30G; C112.1A (protein) ARVDQTPQTITKETGESLTINCVLRDSNGALSSTYWYRKKSGSTNEESISKGGRYVETVNSGSKSFSLRINDLTVEDSGTYRCKPESRYGSYDAEAAALNDQYGGGTVVTVN
RECORDED_VALUE: 24.1
//
BINDER: anti-lysozyme VNAR (lyso-VNAR) C30L; C112.1A (protein) ARVDQTPQTITKETGESLTINCVLRDSNLALSSTYWYRKKSGSTNEESISKGGRYVETVNSGSKSFSLRINDLTVEDSGTYRCKPESRYGSYDAEAAALNDQYGGGTVVTVN
RECORDED_VALUE: 19.1
//
BINDER: anti-lysozyme VNAR (lyso-VNAR) C30L; C112.1L (protein) ARVDQTPQTITKETGESLTINCVLRDSNLALSSTYWYRKKSGSTNEESISKGGRYVETVNSGSKSFSLRINDLTVEDSGTYRCKPESRYGSYDAELAALNDQYGGGTVVTVN
RECORDED_VALUE: 100
//
BINDER: anti-lysozyme VNAR (lyso-VNAR) C30A; C112.1S (protein) ARVDQTPQTITKETGESLTINCVLRDSNAALSSTYWYRKKSGSTNEESISKGGRYVETVNSGSKSFSLRINDLTVEDSGTYRCKPESRYGSYDAESAALNDQYGGGTVVTVN
RECORDED_VALUE: 31.5
